System: MCF7
protocol.description: Cytotoxicity against human MCF7 cells by MTT assay
Assay type: functional, cell-based
pIC50: −log10 of the molar value.
Label Fulfilled for high-side pIC50 (at or above 5) and Not fulfilled for low-side pIC50 (below it).

smiles.text	category.label
Cc1cccc(-c2cc(O)c3c(ccc4[nH]ccc43)n2)c1	Fulfilled
Cc1cc(O)c2c(ccc3[nH]ccc32)n1	Not fulfilled
N#Cc1cccc(-c2cc(O)c3c(ccc4[nH]ccc43)n2)c1	Not fulfilled
COc1cccc(-c2cc(O)c3c(ccc4[nH]ccc43)n2)c1	Fulfilled
Oc1cc(-c2cccs2)nc2ccc3[nH]ccc3c12	Fulfilled
N#Cc1ccc(-c2cc(O)c3c(ccc4[nH]ccc43)n2)cc1	Not fulfilled
Nc1cccc(-c2cc(O)c3c(ccc4[nH]ccc43)n2)c1	Not fulfilled
Oc1ccnc2ccc3[nH]ccc3c12	Not fulfilled
O=c1cc(-c2ccccc2)[nH]c2ccc3[nH]ccc3c12	Fulfilled
O=[N+]([O-])c1cccc(-c2cc(O)c3c(ccc4[nH]ccc43)n2)c1	Not fulfilled
COC(=O)c1cc2c([nH]1)c(OC)cc1nc(-c3ccccc3)cc(O)c12	Not fulfilled
Oc1cc(-c2cccc(Br)c2)nc2ccc3[nH]ccc3c12	Fulfilled

---

# reported IC50; entries follow
Test system: PT-45
protocol.description: Cytotoxicity against human PT45 cells by MTT assay
Assay type: functional, cell-based
reported.endpoint: IC50 (µM)

smiles.text	reported.endpoint	unit.symbol	limit.operator	reported.value
O=[N+]([O-])c1cccc(-c2cc(O)c3c(ccc4[nH]ccc43)n2)c1	IC50	µM	=	45
COC(=O)c1cc2c([nH]1)c(OC)cc1nc(-c3ccccc3)cc(O)c12	IC50	µM	>	50
N#Cc1cccc(-c2cc(O)c3c(ccc4[nH]ccc43)n2)c1	IC50	µM	=	40
Nc1cccc(-c2cc(O)c3c(ccc4[nH]ccc43)n2)c1	IC50	µM	=	8
CCN(CC)CCn1ccc2c3c(O)cc(-c4ccccc4)nc3ccc21	IC50	µM	=	5
Cc1cccc(-c2cc(O)c3c(ccc4[nH]ccc43)n2)c1	IC50	µM	=	7
Oc1cc(-c2cccs2)nc2ccc3[nH]ccc3c12	IC50	µM	=	8
Oc1ccnc2ccc3[nH]ccc3c12	IC50	µM	>	50
Oc1cc(-c2cccc(Br)c2)nc2ccc3[nH]ccc3c12	IC50	µM	=	6
COc1cccc(-c2cc(O)c3c(ccc4[nH]ccc43)n2)c1	IC50	µM	=	0.7
N#Cc1ccc(-c2cc(O)c3c(ccc4[nH]ccc43)n2)cc1	IC50	µM	=	20
O=c1cc(-c2ccccc2)[nH]c2ccc3[nH]ccc3c12	IC50	µM	=	0.5
Cc1cc(O)c2c(ccc3[nH]ccc32)n1	IC50	µM	>	50

---

# reported pIC50; entries follow
Test system: BNL
protocol.description: Cytotoxicity against mouse BNL cells by MTT assay
Format: functional, cell-based
pIC50: −log10 of the molar value.

smiles.text	system.tested	limit.operator	pIC50
CCN(CC)CCn1ccc2c3c(O)cc(-c4ccccc4)nc3ccc21	BNL	=	5.30
COC(=O)c1cc2c([nH]1)c(OC)cc1nc(-c3ccccc3)cc(O)c12	BNL	<	4.30
N#Cc1ccc(-c2cc(O)c3c(ccc4[nH]ccc43)n2)cc1	BNL	=	4.82
CC[C@]1(O)C[C@H]2CN(CCc3c([nH]c4ccccc34)[C@@](C(=O)OC)(c3cc4c(cc3OC)N(C=O)[C@H]3[C@@](O)(C(=O)OC)[C@H](OC(C)=O)[C@]5(CC)C=CCN6CC[C@]43[C@@H]65)C2)C1	BNL	=	7.10
